experiment: Specific surface area by Brunauer-Emmett-Teller (B.E.T.) nitrogen absorption; type: physicochemical; conditions: B.E.T. method, crystalline particles
Where a name gives a salt, the structure may show the parent alone.
Catalogue of Specific Surface Area values
Write the answer as a number in m^2/g, unit excluded.

Before answering, review these 2 worked examples.
>  <molecule>
CCCCc1ncc(/C=C(\Cc2cccs2)C(=O)O)n1Cc1ccc(C(=O)O)cc1 [Reference Example 3, eprosartan mesylate]

>  <Specific Surface Area (m^2/g)>
0.53

$$$$
>  <molecule>
CCCCc1ncc(/C=C(\Cc2cccs2)C(=O)O)n1Cc1ccc(C(=O)O)cc1 [Example 4, eprosartan mesylate]

>  <Specific Surface Area (m^2/g)>
1.11

$$$$

Now look at this one.
[in] Which Specific Surface Area value belongs to CCCCc1ncc(/C=C(\Cc2cccs2)C(=O)O)n1Cc1ccc(C(=O)O)cc1 [Example 2, eprosartan mesylate] ?
[out] 1.09
